Target: human PAR4 (Homo sapiens)
Sequence (Q96RI0 18-385): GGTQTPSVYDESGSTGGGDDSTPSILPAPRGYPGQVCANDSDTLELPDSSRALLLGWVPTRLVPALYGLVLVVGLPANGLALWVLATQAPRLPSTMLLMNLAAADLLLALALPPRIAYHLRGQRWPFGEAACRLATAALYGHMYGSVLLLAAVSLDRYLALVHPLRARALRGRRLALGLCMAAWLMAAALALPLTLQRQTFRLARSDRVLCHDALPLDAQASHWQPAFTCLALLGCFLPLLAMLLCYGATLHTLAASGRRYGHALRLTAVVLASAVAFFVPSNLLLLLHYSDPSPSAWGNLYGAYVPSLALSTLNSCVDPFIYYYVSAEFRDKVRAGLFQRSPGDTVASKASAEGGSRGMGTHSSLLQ
Test: PAR4 FLIPR assay: antagonism of agonist-peptide-induced calcium mobilization in PAR4-expressing HEK293 cells
Conditions: H-Ala-Phe(4-F)-[…]NH2-induced intracellular calcium mobilization, 11-point curves
Recorded IC50 determines the group label, using low interval (below 2 nM), middle interval (2 nM to below 4 nM), high interval (4 nM or more)

Prompt line: # bin label for COc1cnc2c(-c3nc4c(C)cc(OCCNS(=O)(=O)c5ccc(F)cc5)cc4s3)cc(C)cc2n1
Response line: middle interval

Prompt line: For COc1cnc2c(-c3nc4cc(F)c(O[C@@H](C)[C@@H](C)OC(=O)Nc5cnc(C)c(C)c5)cc4s3)cc(Cl)cc2c1 then?
Response line: middle interval

Prompt line: Another: COCc1cnc2c(-c3nc4c(Cl)cc(F)cc4s3)cc(C)cc2n1
Response line: middle interval

Prompt line: Next compound up: COc1cnc2c(-c3nc4cc(F)c(OC[C@@H](C)OC(=O)Nc5ccnc(C(=O)NCCO)c5)cc4s3)cc(C)cc2n1
Response line: low interval

Prompt line: What do we get for COc1cnc2c(-c3nc4c(F)c(F)c(OC)cc4s3)cc(C#N)cc2n1 ?
Response line: high interval

Prompt line: Now give it for Cc1cc(-c2nc3ccc(OCCNC(=O)OCC4CCCO4)cc3s2)c2ncc(OC(F)F)nc2c1 (centres unmarked) too.
Response line: high interval

Prompt line: Another compound: COc1cnc2c(-c3nc4cc(F)c(O[C@@H](C)[C@@H](C)OC(=O)Nc5ccc(C(=O)N6CCOCC6)nc5)cc4s3)cc(C)cc2n1
Response line: high interval

Prompt line: Quick one: COCc1cnc2c(-c3nc4ccc(OC)cc4s3)cc(C)cc2n1
Response line: low interval

Prompt line: Now consider COc1cnc2c(-c3nc4cc(F)c(O[C@@H](C)[C@@H](C)OC(=O)Nc5ccc(OCCO)nc5)nc4s3)cc(C)cc2n1 .
Response line: low interval

Prompt line: Quick one: COCc1cnc2c(-c3nc4c(CO)cc(OC)nc4s3)cc(C)cc2n1
Response line: middle interval

Prompt line: Follow-up entry: COc1cnc2c(-c3nc4cc(F)c(O[C@@H](C)[C@@H](C)OC(=O)Nc5cncc(C#N)c5)cc4s3)cc(C)cc2n1
Response line: low interval

Prompt line: Query COc1cnc2c(-c3nc4cc(F)c(OC[C@@H](C)OC(=O)Nc5ccc(F)nc5)cc4s3)cc(C)cc2n1 next
Response line: high interval

Prompt line: Quick one: COc1cnc2c(-c3nc4cc(F)c(O[C@@H](C)[C@@H](C)OC(=O)Nc5cnc(C)nc5)cc4s3)cc(Cl)cc2n1
Response line: low interval

Prompt line: Continue with COc1cnc2c(-c3nc4cc(F)c(O[C@@H](C)[C@@H](C)OC(=O)Nc5cnc(C)nc5)cc4s3)cc(CO)cc2c1
Response line: high interval

Prompt line: Entry to check: CNc1cnc2c(-c3nc4cc(F)c(O[C@@H](C)[C@@H](C)OC(=O)Nc5cnc(C)nc5)cc4s3)cc(Cl)cc2c1
Response line: high interval

Prompt line: What do we get for COCc1cnc2c(-c3nc4ccc(OC)cc4s3)cc(Cl)cc2n1 [Example 202] ?
Response line: low interval

Prompt line: Same read-out for COc1cnc2c(-c3nc4cc(F)c(OC[C@@H](C)OC(=O)Nc5ccc(C(=O)N6CCO[C@@H](CO)C6)nc5)cc4s3)cc(C)cc2n1 ?
Response line: middle interval

Prompt line: Repeat with COCc1cnc2c(-c3nc4c(C)cc(OCCNS(=O)(=O)c5ccc(F)cc5)cc4s3)cc(C)cc2n1
Response line: low interval

Prompt line: Another: COc1cnc2c(-c3nc4c(Cl)c(F)c(O[C@@H](C)[C@@H](C)OC(=O)Nc5ccc(OC)nc5)cc4s3)cc(Cl)cc2c1
Response line: middle interval

Prompt line: Thanks! And Cc1cc(-c2nc3cc(F)c(O[C@@H](C)[C@@H](C)OC(=O)Nc4cnc(C)nc4)cc3s2)c2ncc(OC(F)F)cc2c1 ?
Response line: middle interval

Prompt line: What do you have for COc1cnc2c(-c3nc4c(Cl)c(F)c(OCCOC(=O)NCc5ccncc5)cc4s3)cc(C)cc2n1 ?
Response line: high interval

Prompt line: What do we get for COc1cnc2c(-c3cc4cc(OCCNS(=O)(=O)c5ccccc5)cc(Cl)c4o3)cc(C)cc2n1 ?
Response line: high interval

Prompt line: Same thing, different compound: COc1cc(C(O)c2nccs2)c2nc(-c3cc(C)cc4nc(OC)cnc34)sc2c1 (centres unmarked)
Response line: high interval

Prompt line: Lookup COc1cnc2c(-c3nc4cc(F)c(O[C@@H](C)[C@@H](C)OC(=O)Nc5cnc(C)nc5)cc4s3)cc(C#N)cc2c1
Response line: low interval

Prompt line: Query CCOc1cnc2c(-c3nc4cc(F)c(O[C@@H](C)[C@@H](C)OC(=O)Nc5cnc(COP(=O)(O)O)nc5)cc4s3)cc(C)cc2n1 next
Response line: low interval

Prompt line: Next compound up: COc1cnc2c(-c3nc4cc(F)c(O[C@@H](C)[C@@H](C)OC(=O)Nc5cnc(OC[C@@H](C)O)nc5)cc4s3)cc(C)cc2n1
Response line: high interval

Prompt line: Queued: COCc1cnc2c(-c3nc4c(Cl)c(F)c(OCCO)cc4s3)cc(C)cc2n1
Response line: low interval
